# System: U2OS
# test name: Multiplex assay against U2OS
# Type: toxicity, cell-based
# experimental parameters: human, 48 h, 10 µM, compound concentration 10 uM, replicate 1
readout label: Population Apoptotic (%)
Return type: number; implicit unit %.

Query :: Can you share its Population Apoptotic (%)? I mean this compound: C=CC(=O)Nc1cc(-n2c(=O)ccc3cnc4ccc(-c5ccc(NS(C)(=O)=O)cc5)cc4c32)ccc1C
Result :: 77

###

# Test system: Fibroblast
# test name: Multiplex assay against human fibroblast
# Assay type: toxicity, cell-based
# experimental parameters: 48 h, 1 µM, compound concentration 1 uM, replicate 1
Item-by-item account of Population Pyknosed Nuclei (%)
Report the figure in % without appending any unit label.

CCCCN(CC)c1nc(C)nc2c1c(C)cn2-c1c(C)cc(C)cc1C.Cl | 14
Oc1cccc(-c2nc(N3CCOCC3)c3oc4ncccc4c3n2)c1 | 12
N#Cc1cccc(C(=O)Nc2cc(-c3ccccc3)nn2-c2ccccc2)c1 | 24
Cl.NC[C@@H]1O[C@H](C23CC4CC(CC(C4)C2)C3)Cc2c1ccc(O)c2O | 4
Cc1c(P(=S)(c2ccccc2)c2ccccc2)n2ccccc2[n+]1C/C=C/c1ccccc1.[Br-] | 11
CC(C)c1cc(Nc2nc(N3CCC[C@H](N)C3)ncc2C(N)=O)cc(C(C)C)n1 | 29
N#CCNC(=O)c1ccc(-c2ccnc(Nc3ccc(N4CCOCC4)cc3)n2)cc1 | 8
CN1C(=O)[C@@H](NC(=O)c2cc3ccccc3[nH]2)N=C(c2ccccc2)c2ccccc21 [DEVAZEPIDE] | 18

Next molecule, Population Pyknosed Nuclei (%) to be filled in.
Query :: Reported Population Pyknosed Nuclei (%), molecule CN(c1cc(C(F)(F)F)nc(OCCC(=O)O)n1)c1cccc2c1CCC2 : ____
Result :: 23

###

# System: Fibroblast
# test name: Multiplex assay against human fibroblast
# Format: toxicity, cell-based
# experimental parameters: 24 h, 1 µM, compound concentration 1 uM, replicate 1
With a cut-off of 50%, any Population Healthy Nuclei (%) strictly below it is called rule met; any Population Healthy Nuclei (%) meeting it or above is called rule not met.

CC(C)C[C@H](NC(=O)[C@H](Cc1ccccc1)NC(=O)CNC(=O)CNC(=O)[C@@H](N)Cc1ccc(O)cc1)C(=O)O | rule met

Query :: Please state whether Population Healthy Nuclei (%) is below 50% for CCOC(=O)CCNc1cc(N2CCc3ccccc3CC2)nc(-c2ccccn2)n1
Result :: rule not met

Query :: Entry to check: CCOc1ccn(-c2ccc(F)cc2)c(=O)c1C(=O)Nc1ccc(Oc2ccnc(N)c2Cl)c(F)c1
Result :: rule not met

Query :: Next molecule: Cc1ccc(NC(=O)Nc2cc(C(F)(F)F)ccc2F)cc1Nc1ccc2c(c1)NC(=O)/C2=C\c1ccc[nH]1
Result :: rule not met

###

# System: U2OS
# test name: Incucyte cell viability with U2OS; also: filed as whole numbers so only -1 and 0 and 1 occur
# Assay type: toxicity, cell-based
# experimental parameters: human, 0 h, 10 µM, compound concentration 10 uM, replicate number 1, timepoint 0 hours
readout label: Growth Rate
Lab note: record the figure alone, no unit after it.

The following compounds have reported results that may help.
Cn1cc(Cl)c2c(Oc3c(F)cc(Nc4cc(Cl)nc(N)n4)cc3F)ccnc21 | 1
COc1ccc2c(c1)O[C@@H](c1ccc(OC)c(OC)c1)C[C@H]2NC(=O)C1(c2ccc3c(c2)OC(F)(F)O3)CC1 | 0
Oc1cccc(-c2nc(N3CCOCC3)c3oc4ncccc4c3n2)c1 | 0
Cl.Cn1c2c(c3ccc(Cl)c(Cl)c31)C(C#N)C1(CCNCC1)NC2=O (centres undefined) | 0
CC(C)(C)c1ccc(C(=O)Nc2cn3cc(-n4ccnc4)ccc3n2)cc1.Cl.Cl | 1
CN1C(=O)[C@@H](NC(=O)c2cc3ccccc3[nH]2)N=C(c2ccccc2)c2ccccc21 [DEVAZEPIDE] | 0
COc1cc(OC)c(NC(=O)c2ccc(Cc3cc4c(cc3C)C(C)(C)CCC4(C)C)o2)c(OC)c1 | 0
COc1ccc2c(c1)O[C@H](c1ccc(OC)c(OC)c1)C[C@@H]2NC(=O)C1(c2ccc3c(c2)OC(F)(F)O3)CC1 | 0

Query :: Please look up its Growth Rate: COc1cc(C#N)ccc1S(=O)(=O)Nc1ccc2c(c1)cc(C)c(=O)n2C
Result :: 0

###

Reported values of Population Tubulin-Different-Phenotype (%) for individual entries
# Test system: HEK-293T
# test name: Multiplex assay against HEK293T;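 also: share of the cells with healthy nuclei that show this phenotype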
# Assay type: toxicity, cell-based
# experimental parameters: human, 12 h, 1 µM, compound concentration 1 uM, replicate 2
Provide the reading as a plain figure in %.

Below, each entry is followed by its recorded Population Tubulin-Different-Phenotype (%) result.
CN1C(=O)[C@@H](NC(=O)c2cc3ccccc3[nH]2)N=C(c2ccccc2)c2ccccc21 [DEVAZEPIDE] | 28
N#CCNC(=O)c1ccc(-c2ccnc(Nc3ccc(N4CCOCC4)cc3)n2)cc1 [MOMELOTINIB] | 21
NC(=O)c1ccc2nc(-c3ccc(C4(N)CCC4)cc3)c(-c3ccccc3)n2n1 [BAY-1125976] | 38
CC(C)[C@H](CO)Nc1nc(Nc2cccc(Cl)c2)c2ncn(C(C)C)c2n1 [PURVALANOLA] | 32
Cc1ccc(S(=O)(=O)NC2c3ccccc3Oc3ccccc32)cc1 | 22
CC[C@H](Nc1ncnc2[nH]cnc12)c1nc2cccc(F)c2c(=O)n1-c1ccccc1 [IDELALISIB] | 64

// switching to the query compound
Query :: Requested field: Population Tubulin-Different-Phenotype (%). Item: CC[C@@H]1C(=O)N(C)c2cnc(Nc3ccc(C(=O)NC4CCN(C)CC4)cc3OC)nc2N1C1CCCC1 [BI-2536]
Result :: 41

###

# Test system: HEK-293T
# test name: Multiplex assay against HEK293T;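 also: share of the cells with healthy nuclei that show this phenotype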
# Type: toxicity, cell-based
# experimental parameters: human, 24 h, 10 µM, compound concentration 10 uM, replicate 2
Readings of Population Tubulin-Different-Phenotype (%) for the listed compounds
Value expressed in %; do not type the unit.

Worked cases, Population Tubulin-Different-Phenotype (%) given:
CC(C)c1cc(Nc2nc(N3CCC[C@H](N)C3)ncc2C(N)=O)cc(C(C)C)n1 | 70
Cc1c(P(=S)(c2ccccc2)c2ccccc2)n2ccccc2[n+]1C/C=C/c1ccccc1.[Br-] | 100
N#Cc1cccc(C(=O)Nc2cc(-c3ccccc3)nn2-c2ccccc2)c1 | 100
NC(=O)c1ccc2nc(-c3ccc(C4(N)CCC4)cc3)c(-c3ccccc3)n2n1 | 6
C=CC(=O)Nc1cc(-n2c(=O)ccc3cnc4ccc(-c5ccc(NS(C)(=O)=O)cc5)cc4c32)ccc1C | 57
CCOC(=O)CCNc1cc(N2CCc3ccccc3CC2)nc(-c2ccccn2)n1 | 65
CN(c1cc(C(F)(F)F)nc(OCCC(=O)O)n1)c1cccc2c1CCC2 | 19
CN1C(=O)[C@@H](NC(=O)c2cc3ccccc3[nH]2)N=C(c2ccccc2)c2ccccc21 [DEVAZEPIDE] | 74

Query :: # returns recorded Population Tubulin-Different-Phenotype (%) (system: HEK-293T) for Cl.NC[C@@H]1O[C@H](C23CC4CC(CC(C4)C2)C3)Cc2c1ccc(O)c2O
Result :: 76

###

# System: Fibroblast
# test name: Multiplex assay against human fibroblast
# Type: toxicity, cell-based
# experimental parameters: 12 h, 10 µM, compound concentration 10 uM, replicate 1
The label depends only on Population Tubulin-Different-Phenotype (%): class 1 if it is at least 60%, class 0 if it is smaller.

Query :: Evaluate Cl.Cn1c2c(c3ccc(Cl)c(Cl)c31)C(C#N)C1(CCNCC1)NC2=O (stereo unspecified) : Population Tubulin-Different-Phenotype (%) at minimum 60%?
Result :: class 0

###

# Test system: HEK-293T
# test name: Multiplex assay against HEK293T;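 also: share of the cells with healthy nuclei that show this phenotype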
# Type: toxicity, cell-based
# experimental parameters: human, 12 h, 1 µM, compound concentration 1 uM, replicate 2
readout label: Population Tubulin-Different-Phenotype (%)
Entry format: amount then unit.

Cl.NC[C@@H]1O[C@H](C23CC4CC(CC(C4)C2)C3)Cc2c1ccc(O)c2O | 47%

Now look at this one.
Query :: Requested field: Population Tubulin-Different-Phenotype (%). Item: CC(/C=C1\SC(=S)N(CCCC(=O)Nc2ccc(C(=O)O)c(O)c2)C1=O)=C\c1ccccc1
Result :: 21%

###

# Test system: Fibroblast
# test name: Multiplex assay against human fibroblast
# Type: toxicity, cell-based
# experimental parameters: 24 h, 10 µM, compound concentration 10 uM, replicate 2
readout label: Population Apoptotic (%)
# unit: % | format: bare number

CCCc1cc(C)[nH]c(=O)c1CNC(=O)c1cc(-c2ccc(N3CCN(C(C)C)CC3)nc2)cc2c1cnn2C(C)C | 91
Cc1ccc(S(=O)(=O)NC2c3ccccc3Oc3ccccc32)cc1 | 100
c1ccc(-c2oc3ncnc(NC[C@@H]4CCCO4)c3c2-c2ccccc2)cc1 | 100
CC[C@@H]1C(=O)N(C)c2cnc(Nc3ccc(C(=O)NC4CCN(C)CC4)cc3OC)nc2N1C1CCCC1 [BI-2536] | 100
N#CCNC(=O)c1ccc(-c2ccnc(Nc3ccc(N4CCOCC4)cc3)n2)cc1 [MOMELOTINIB] | 45
CC(C)[C@H](CO)Nc1nc(Nc2cccc(Cl)c2)c2ncn(C(C)C)c2n1 [PURVALANOLA] | 80

Query :: # input compound: CC(Cc1ccc(O)c(O)c1)C(C)Cc1ccc(O)c(O)c1 (stereo not drawn) [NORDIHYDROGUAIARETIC ACID] ; wanted: its Population Apoptotic (%)
Result :: 16

Query :: And the next one, CCCCCNC(=N)N/N=C/c1c[nH]c2ccc(OC)cc12.O=C(O)/C=C\C(=O)O [TEGASEROD MALEATE] ?
Result :: 100

Query :: Can you check C=CC(=O)Nc1cc(-n2c(=O)ccc3cnc4ccc(-c5ccc(NS(C)(=O)=O)cc5)cc4c32)ccc1C next?
Result :: 84

Query :: Query Cc1ccc(NC(=O)Nc2cc(C(F)(F)F)ccc2F)cc1Nc1ccc2c(c1)NC(=O)/C2=C\c1ccc[nH]1 next
Result :: 50

Query :: // repeat for CC[C@H](Nc1ncnc2[nH]cnc12)c1nc2cccc(F)c2c(=O)n1-c1ccccc1 [IDELALISIB] and report
Result :: 0

Query :: Another: CC(/C=C1\SC(=S)N(CCCC(=O)Nc2ccc(C(=O)O)c(O)c2)C1=O)=C\c1ccccc1
Result :: 44

Query :: Proceed to COc1ccccc1-c1cc(Nc2cccc(CS(N)(=O)=O)c2)ncn1
Result :: 50

Query :: Next compound up: Oc1cccc(-c2nc(N3CCOCC3)c3oc4ncccc4c3n2)c1 [PI-103]
Result :: 50

Query :: Similarly, Cl.Cn1c2c(c3ccc(Cl)c(Cl)c31)C(C#N)C1(CCNCC1)NC2=O (stereo not drawn) ?
Result :: 87

Query :: Subsequent entry: CCOC(=O)CCNc1cc(N2CCc3ccccc3CC2)nc(-c2ccccn2)n1
Result :: 100

Query :: Another compound to look at: CN1C(=O)[C@@H](NC(=O)c2cc3ccccc3[nH]2)N=C(c2ccccc2)c2ccccc21 [DEVAZEPIDE]
Result :: 92

Query :: Here is the next compound: Cl.NC[C@@H]1O[C@H](C23CC4CC(CC(C4)C2)C3)Cc2c1ccc(O)c2O
Result :: 92
